Consider the following compounds and their measured cytotoxicity at 70.5 h readings.
assay_overview: Human HepG2 cell viability assay in 384 well format
Type: toxicity, cell-based
Parameters: dose 125 nL, time 70.5 hour; concentration not given beside the values
condition_notes: HepG2 cells, read-out: Inhibition
Use % as the unit, but write only the number.

1. c1cnc(N2CCN(Cc3nnnn3C3CC3)CC2)nc1 | -16.2
2. O=C(O)CCC(=O)Nc1nn(Cc2ccc(F)cc2)cc1Cl | 27.9
3. COc1ccc(F)cc1CN1CCN(Cc2nccn2C)C(C)C1 (centres undefined) | 9.37
4. CCOC(=O)NC(CNC(=O)c1cccnc1SC)CC(C)C (centres undefined) | 8.28

input: Quick one: give measured cytotoxicity at 70.5 h for CCN(CC)S(=O)(=O)N1C[C@@H](c2ccccc2)[C@H]2[C@H]1CCCCCN2C
output: -1.32

input: Quick one: give measured cytotoxicity at 70.5 h for CC(=O)N1CCCCCC1C1CCN(Cc2nc(C3CC3)no2)CC1 (centres undefined)
output: 0.683

input: Quick one: give measured cytotoxicity at 70.5 h for Cc1cccn2cc(CC(=O)N3CCCC(n4cncn4)C3)nc12 (centres undefined)
output: -3.85

input: Quick one: give measured cytotoxicity at 70.5 h for FC(F)(F)COc1cccc(-c2nc3c([nH]2)CCNC3)c1
output: -4.72

input: Quick one: give measured cytotoxicity at 70.5 h for CC(C)C(C)NC(=O)Nc1cccc2c1CCN(S(C)(=O)=O)C2 (centres undefined)
output: -2.03

input: Quick one: give measured cytotoxicity at 70.5 h for COc1ccc2cccc(CC(=O)NCCCc3n[nH]c(C)n3)c2c1
output: 4.93

input: Quick one: give measured cytotoxicity at 70.5 h for O=C1CC2(CCN(CCO)CC2)CN1Cc1cc(F)cc(F)c1
output: -7.72

input: Quick one: give measured cytotoxicity at 70.5 h for O=C1CCC2(CCN(c3ncc(F)cn3)CC2)N1Cc1ccncc1
output: 7.51

input: Quick one: give measured cytotoxicity at 70.5 h for COC1COC2(CCN(CC3CCOCC3)CC2)C1 (centres undefined)
output: -11.1

input: Quick one: give measured cytotoxicity at 70.5 h for Cc1noc(CNC2CCCN(Cc3noc(C4CC4)n3)C2)n1 (centres undefined)
output: -2.29

input: Quick one: give measured cytotoxicity at 70.5 h for Cc1ccc(C(=O)N2CCn3cc(CN4CCCCC4)nc3C2)o1
output: 35.2

input: Quick one: give measured cytotoxicity at 70.5 h for O=c1[nH]cc(Nc2ccc(Cl)cc2)c(=O)[nH]1
output: 29.9

###

assay_overview: Human HepG2 cell viability assay in 384 well format
Assay type: toxicity, cell-based
Set-up: dose 125 nL, time 70.5 hour; concentration not given beside the values
condition_notes: HepG2 cells, read-out: Inhibition
Consider the following compounds and their measured cytotoxicity at 70.5 h readings.
Use % as the unit, but write only the number.

1. Cc1nn(C)c2cnn(Cc3ccc(C(=O)NC4CC4)cc3)c12 | -5.97
2. COC(=O)c1sccc1S(=O)(=O)N1CCc2c(ncnc2N(C)C)C1 | -1.11
3. CCC(C)(C)NC(=O)c1ncn2c1CN(C)S(=O)(=O)c1ccccc1-2 | 20.8
4. CN(CCOc1ccccc1F)S(=O)(=O)CC1CCOCC1 | -8.77

input: Quick one: give measured cytotoxicity at 70.5 h for COc1ccc(Cl)cc1S(=O)(=O)N1C[C@@H]2CC[C@H](C1)N(C)C2=O
output: 6.39

input: Quick one: give measured cytotoxicity at 70.5 h for Cc1ccc2c(c1)OCCCC2NCc1nnc2n1CCCCC2 (stereo unspecified)
output: -6.04

input: Quick one: give measured cytotoxicity at 70.5 h for CCc1nnc(CN2CCN(C(C)=O)CC2)o1
output: -1.65

input: Quick one: give measured cytotoxicity at 70.5 h for O=C(N1CCOCC1)[C@@]12CCO[C@@H]1CCN(CC1CCC1)C2
output: -20.9

input: Quick one: give measured cytotoxicity at 70.5 h for O=c1c2cnc(N3CCCCC3)nc2ccn1Cc1ccco1
output: -7.45

input: Quick one: give measured cytotoxicity at 70.5 h for COc1ncccc1CN1CCN(c2noc(C(C)C)n2)CC1
output: 3.17

input: Quick one: give measured cytotoxicity at 70.5 h for Cc1cc(NC(=O)CCNC(C)(C)c2nc(C)c(C)s2)no1
output: -5.95

###

Consider the following molecules and their measured cytotoxicity at 70.5 h readings.
assay_overview: Human HepG2 cell viability assay in 384 well format
Type: toxicity, cell-based
Set-up: dose 125 nL, time 70.5 hour; concentration not given beside the values
condition_notes: HepG2 cells, read-out: Inhibition
Use % as the unit, but write only the number.

1. CN(Cc1nc(-c2cccs2)no1)Cc1nc2c(s1)CCCC2 | -3.38

input: Quick one: give measured cytotoxicity at 70.5 h for Cc1ccc(F)cc1S(=O)(=O)N1C[C@@H](C)[C@@](C)(O)C1
output: 14.7

input: Quick one: give measured cytotoxicity at 70.5 h for O=C1CCCN1CC1CCCCN1C(=O)Nc1cccc(F)c1 (configuration not stated)
output: -14.6

input: Quick one: give measured cytotoxicity at 70.5 h for Cc1nc(NC(=O)c2ccc(-n3ncc(C#N)c3N)cc2)sc1C
output: 17

input: Quick one: give measured cytotoxicity at 70.5 h for Cc1noc(C)c1-c1n[nH]c2c1CN(S(=O)(=O)c1cccnc1)CC2
output: -6.84

input: Quick one: give measured cytotoxicity at 70.5 h for Cc1ccccc1OCCC(=O)N(C)Cc1c(C)noc1C
output: -11.1

###

Consider the following compounds and their measured cytotoxicity at 70.5 h readings.
assay_overview: Human HepG2 cell viability assay in 384 well format
Assay type: toxicity, cell-based
Parameters: dose 125 nL, time 70.5 hour; concentration not given beside the values
condition_notes: HepG2 cells, read-out: Inhibition
Use % as the unit, but write only the number.

Study these solved cases before continuing.
1. O=C(c1cc2cc(F)ccc2[nH]1)N1CCC(Nc2ccc(F)cc2)CC1 | -4.25
2. Cc1cnc(CN(C)C2CCN(Cc3nc4c(F)cccc4[nH]3)C2)o1 (stereo not given) | 1.64
3. c1cc(CN2Cc3nnn(CC4CC4)c3C(COCC3CC3)C2)co1 (stereo not given) | -8.27
4. N#Cc1c(Cl)nsc1NCc1ccc(N2CCC(CO)CC2)cc1 | -0.689
5. Cc1csc(C(C)(C)NCc2ncc(-c3ccccc3)o2)n1 | -7.99
6. O=C(NCCc1ccncc1)[C@H]1CC[C@@H]2[C@@H](CCN2C2CCC2)O1 | -7.73
7. Cc1ncc(CNC(=O)NCC(C)Oc2ccccc2F)s1 (stereo not given) | -3.22
8. Cc1nc(CN2C(=O)CC[C@@H]3[C@H]2CCN3C2CCOCC2)cs1 | -2.88

input: Quick one: give measured cytotoxicity at 70.5 h for Cc1nc[nH]c1CN1C[C@@H]2CC[C@H](C1)N(C(=O)CCNS(C)(=O)=O)C2
output: -1.67

input: Quick one: give measured cytotoxicity at 70.5 h for Cc1cc(C(=O)NC(CC(C)C)C(=O)Nc2cc[nH]n2)c(C)o1 (stereo not given)
output: 0.859

###

assay_overview: Human HepG2 cell viability assay in 384 well format
Type: toxicity, cell-based
Set-up: dose 125 nL, time 70.5 hour; concentration not given beside the values
condition_notes: HepG2 cells, read-out: Inhibition
Consider the following molecules and their measured cytotoxicity at 70.5 h readings.
Use % as the unit, but write only the number.

Study these solved cases before continuing.
1) O=C(CN1CCNC1=O)NCc1ccc2sccc2c1 | -9.13
2) COC(CNC(=O)c1ccoc1)c1cccc(Cl)c1 (centres undefined) | -5.07
3) CC(C)c1cnc(CN2CCCS2(=O)=O)o1 | -1.78
4) CSc1nccc(N2C[C@@H]3CC[C@H](C2)N(CC2CCC2)C3=O)n1 | 13
5) Cc1ccccc1-n1ccc2nc(N3CCCC3)ncc2c1=O | -13.6
6) COc1ccc(NCCC(=O)NCc2cccnc2N(C)C)cc1 | -8.23

input: Quick one: give measured cytotoxicity at 70.5 h for Cc1nc(N2CCN(C(=O)c3cccnc3)CC2)cc(-n2cccc2)n1
output: 4.9

input: Quick one: give measured cytotoxicity at 70.5 h for Cc1cccc(C(=O)N2CCCC2)c1NCC(=O)NC1(C#N)CCCC1
output: -4.19

input: Quick one: give measured cytotoxicity at 70.5 h for Cc1cc(C(F)(F)F)nc(C2(C)CCCN2CC(N)=O)n1 (centres undefined)
output: 11.5

input: Quick one: give measured cytotoxicity at 70.5 h for CN(C)Cc1cc(=O)n2c(n1)CN(S(=O)(=O)C1CC1)CCC2
output: -6.08

input: Quick one: give measured cytotoxicity at 70.5 h for CN(Cc1c(F)cccc1Cl)C(=O)Nc1cnn(CC(N)=O)c1
output: 6.9

input: Quick one: give measured cytotoxicity at 70.5 h for Cc1ncsc1C(=O)N1CC[C@@H]2[C@@H](CC1)OCCN2c1cccnc1
output: -8.57

input: Quick one: give measured cytotoxicity at 70.5 h for CNc1ccc(Cl)cc1C(=O)N1CCC(Cn2cc(CN)nn2)CC1
output: 1.05

input: Quick one: give measured cytotoxicity at 70.5 h for COCCN1C[C@@H]2[C@@H](OC)CCN(Cc3cccc(C)n3)[C@@H]2C1
output: -8.62
